pIC50: −log10 of the molar value.
Test system CCR2 (Homo sapiens, UniProt P41597), pIC50 listed for each of the molecules.
readout_type: pIC50

* O=C(O)C(C1CCN(C(=O)/C=C/c2cccc(Cl)c2)CC1)N1CCC(c2c[nH]c3ccccc23)CC1 (centres unmarked) | 8.40
* Cc1ccc(/C=C/C(=O)N2CCC(C(C(=O)O)N3CCC(c4c[nH]c5ccccc45)CC3)CC2)cc1F (centres unmarked) | 8.30
* COC(=O)NCC(C1CCN(C(=O)/C=C/c2ccc(Cl)c(Cl)c2)CC1)N1CCC(c2c[nH]c3ccccc23)CC1 (centres unmarked) | 5.34
* O=C(O)C(C1CCN(C(=O)/C=C/c2ccc(F)c(Cl)c2)CC1)N1CCC(c2c[nH]c3ccccc23)CC1 (centres unmarked) | 8.70
* O=C(/C=C/c1ccc(Cl)c(Cl)c1)N1CCC(C(CO)N2CCC(c3c[nH]c4ccc(F)cc34)CC2)CC1 (centres unmarked) | 7.70
* Cc1cc(NC(=O)N2CCC(C(C(=O)O)N3CCC(c4c[nH]c5ccccc45)CC3)CC2)ccc1Br (centres unmarked) | 7.70
* O=CNCC(C1CCN(C(=O)/C=C/c2cc(F)cc(F)c2)CC1)N1CCC(c2c[nH]c3ccccc23)CC1 (centres unmarked) | 6.39
* O=C(O)C(C1CCN(C(=O)/C=C/c2cc(F)cc(F)c2)CC1)N1CCC(c2c[nH]c3cc(F)ccc23)CC1 (centres unmarked) | 8.00
* CS(=O)(=O)Nc1ccc(C2CCN(C(C(=O)O)C3CCN(C(=O)/C=C/c4cc(F)c(F)c(F)c4)CC3)CC2)cc1 (centres unmarked) | 5.70
* O=C(O)C(C1CCN(C(=S)Nc2ccc(Cl)c(Cl)c2)CC1)N1CCC(c2c[nH]c3ccccc23)CC1 (centres unmarked) | 7.70
* O=C(O)C(C1CCN(C(=O)Nc2ccc(Cl)c(C(F)(F)F)c2)CC1)N1CCC(c2c[nH]c3ccccc23)CC1 (centres unmarked) | 7.70
